Hey, just so you know, these numbers are from the RNAGym collection of RNA variant scans (doi:10.7554/elife.80360).

B1: Twister Ribozyme (parent)
chain: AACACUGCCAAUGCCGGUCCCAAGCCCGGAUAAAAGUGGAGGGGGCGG

Variants of: B1
ASSAY COMMENT: self-cleavage, relative activity (ratio to wild type); higher = more cleavage; co-transcriptional
Assign satisfied to entries whose self-cleavage meets or exceeds 0.6; assign not satisfied to the rest.

MUTANT CODE	CATEGORY LABEL
U12C G24A	not satisfied
G7U C25G	not satisfied
A4G G38A	satisfied
G29A A32C	satisfied
G7C C46U	not satisfied
G38C G41A	not satisfied
U6G G29A	not satisfied
U6G A11G	not satisfied
C9G C19A	not satisfied
U31G U37A	satisfied
U18C G38C	not satisfied
A23C G41U	not satisfied
C3G G44A	not satisfied
A22C U31C	satisfied
C21U G45A	not satisfied
C5U G28A	not satisfied
U31G U37C	satisfied
U31G G41A	not satisfied
G17U G28C	not satisfied
C14U A35C	satisfied
A23U G28A	not satisfied
